System: A549
testName: NCI tumour cell line growth inhibition, 48 h
Activity calls are given as the source filed them. No stated cut-off is given here; in the data, active = GI50 up to about 1.1 µM and inactive = higher.
parameterMeasured: GI50

// worked examples, GI50 included
COc1cc(C2c3[nH]c4ccccc4c3[C@@H](Nc3ccc(F)cc3)[C@H]3COC(=O)N23)cc(OC)c1O (stereo not given in full)	0.465 µM (active)
COc1ccc2c(c1)CN1C(=N2)CSC1c1ccccc1Cl (stereo not given)	25.7 µM (inactive)
Cn1c(CCC#N)nc2ccc(Br)cc2c1=O	> 100 µM (inactive)
CCN(CC)CC(C(=O)Nc1c(C)cccc1C)/C(C)=N\NC(=S)NN (stereo not given)	> 100 µM (inactive)
O=C(Nc1ccccc1)OCCN=C1c2ccccc2CCc2ccccc21	17.5 µM (inactive)
c1ccc(/N=C(\N2CCOCC2)N(CCN2CCOCC2)c2ccccc2)cc1	> 100 µM (inactive)
Cn1c(=O)c2c(no[n+]2[O-])c2ccccc21	23.3 µM (inactive)
COc1ccc(-c2nnc3c4ccccc4sn23)cc1	25.4 µM (inactive)
CC(C)=CCc1c(O)c(CC=C(C)C)c2oc3c(c(=O)c2c1O)C(C=C(C)C)Oc1cc(O)ccc1-3 (stereo not given)	5.2 µM (inactive)

Query compound follows.
response.value for CC(C)[Si](OC1=C(c2ccccc2)C(NC(=O)/C=C/c2ccc([N+](=O)[O-])cc2)CCC1)(C(C)C)C(C)C (stereo not given) (field: GI50) = > 100 µM (inactive)

---

Test system: DLD-1
testName: NCI tumour cell line growth inhibition, 48 h
The source made the active and inactive calls. Rule as the data show it: active = GI50 up to about 1.1 µM and inactive = higher.
parameterMeasured: GI50

// worked examples, GI50 included
COc1ccc(O)c2c(=O)ccccc12	> 100 µM (inactive)
CC(=O)/C(C)=N/NC(=O)c1ccccc1O	> 10 µM (inactive)
CC(C(=O)[O-])S(=O)(=O)O.CCc1c2cc(OC)c(OC)cc2cc2c3cc(OC)c(OC)cc3cc[n+]12	65 µM (inactive)
COC(=O)C1(O)c2ccccc2N=C2C1CCN2C (centres undefined)	> 100 µM (inactive)

Query molecule follows.
response.value for COC1=CC(C)C2C[C@H]3O[C@H](O)C[C@H]4C(C)C(=O)C(O)C([C@@]2(C)C1=O)[C@@]34C (some centres undefined) (field: GI50) = > 100 µM (inactive)

---

Some molecules, each annotated with its measured GI50.
Tested on: SW-620
testName: NCI tumour cell line growth inhibition, 48 h
The source made the active and inactive calls. No stated cut-off is given here; in the data, active = GI50 up to about 1.1 µM and inactive = higher.

O/N=C(\c1nc2ccc(Cl)cc2nc1O)C(O)c1ccc(Cl)cc1Cl (stereo not given)	> 100 µM (inactive)

response.value for CCOC(=O)C(=O)Nc1nc2ccc(OC)cc2s1 (field: GI50) = > 100 µM (inactive)

response.value for Cc1ccc(-c2c(C#N)c(-c3ccc(Cl)cc3)c(C#N)c(=O)n2NS(=O)(=O)c2ccc(C)cc2)cc1 (field: GI50) = 35.8 µM (inactive)

response.value for CC(O)CNC(=O)Nc1c(C(F)(F)F)cc(-c2ccccc2)[nH]c1=O (stereo not given) (field: GI50) = > 100 µM (inactive)

response.value for C(=C/c1nnnn1-c1ccccc1)/Nc1ccccc1 (field: GI50) = 37.3 µM (inactive)

---

Test system: NCI/ADR-RES
testName: NCI tumour cell line growth inhibition, 48 h
Activity calls are given as the source filed them. Cut-off read from the data, not from the text of the source: active = GI50 up to about 1.1 µM and inactive = higher.
parameterMeasured: GI50

// worked examples, GI50 included
N#CSCC1COc2ccccc2O1 (centres undefined)	> 10 µM (inactive)
CC(=O)O/C(=C(/C#N)C(=O)O)C1C(C(=O)O)C(c2ccccc2[N+](=O)[O-])C=C(c2ccco2)N1c1ccncc1 (centres undefined)	8.57 µM (inactive)
O=C1c2ccc3c4ccc5c6c(ccc(c7ccc(c2c37)C(=O)N1CCN1CCCCC1)c64)C(=O)N(CCN1CCCCC1)C5=O	> 100 µM (inactive)

Query molecule follows.
response.value for C[C@@H](CC(=O)OCc1ccccc1)OC1OC(COC(=O)C(C)(C)C)C(OC(=O)C(C)(C)C)C(OC(=O)C(C)(C)C)C1OC(=O)C(C)(C)C (some centres undefined) (field: GI50) = > 100 µM (inactive)
